Every entry's value here was drawn from patent US11395857B2.

tissue uptake at 4 h for assorted molecules
# PROCEDURE SUMMARY: Biodistribution of 177Lu-labeled αMSH analogues in mice bearing B16F10 mouse melanoma
# Assay type: in vivo, C57BL/6J mice
# RECORDED CONDITIONS: mouse, brain, iv, total radioactivity; 4 h p.i., C57BL/6J mice, B16F10 melanoma; read-out: Biodistribution, Brain

>  <MOLECULE>
CCCC[C@H](NC(=O)CN1CCC(NC(=O)[C@H](CCCCNC(=O)CN2CCN(CC(=O)O)CCN(CC(=O)O)CCN(CC(=O)O)CC2)NC(=O)[C@H](CCC(=O)O)NC(=O)CCCc2ccc(I)cc2)CC1)C(=O)N[C@H]1CC(=O)NCCCC[C@@H](C(N)=O)N(C)C(=O)[C@H](Cc2c[nH]c3ccccc23)NC(=O)[C@H](CCCNC(=N)N)N(C)C(=O)[C@@H](Cc2ccccc2)NC(=O)[C@H](Cc2c[nH]cn2)NC1=O [^177Lu-labeled CCZ01118, metal not drawn]

>  <tissue uptake at 4 h (%ID/g)>
0.03

$$$$
>  <MOLECULE>
CCCC[C@H](NC(=O)CN1CCC(NC(=O)CN2CCN(CC(=O)O)CCN(CC(=O)O)CCN(CC(=O)O)CC2)CC1)C(=O)N[C@H]1CC(=O)NCCCC[C@@H](C(N)=O)N(C)C(=O)[C@H](Cc2c[nH]c3ccccc23)N(C)C(=O)[C@H](CCCNC(=N)N)N(C)C(=O)[C@@H](Cc2ccccc2)NC(=O)[C@H](Cc2c[nH]cn2)N(C)C1=O [^177Lu-labeled CCZ01099, metal not drawn]

>  <tissue uptake at 4 h (%ID/g)>
0.01

$$$$
>  <MOLECULE>
CCCC[C@H](NC(=O)CN1CCC(NC(=O)[C@H](CCCCNC(=O)CN2CCN(CC(=O)O)CCN(CC(=O)O)CCN(CC(=O)O)CC2)NC(=O)[C@H](CCC(=O)O)NC(=O)CCCc2ccc(I)cc2)CC1)C(=O)N[C@H]1CC(=O)NCCCC[C@@H](C(N)=O)NC(=O)[C@H](Cc2c[nH]c3ccccc23)NC(=O)[C@H](CCCNC(=N)N)NC(=O)[C@@H](Cc2ccccc2)NC(=O)[C@H](Cc2c[nH]cn2)NC1=O [^177Lu-labeled CCZ01082, metal not drawn]

>  <tissue uptake at 4 h (%ID/g)>
0.06

$$$$

====

# PROCEDURE SUMMARY: Biodistribution of 68Ga-labeled peptide in mice bearing B16F10 mouse melanoma
# Format: in vivo, C57BL/6J mice
# RECORDED CONDITIONS: thyroid, iv, total radioactivity, 2 h p.i. unblocked, C57BL/6J mice, B16F10 melanoma, read-out: Biodistribution, Thyroid

>  <COMPOUND>
CCCC[C@H](NC(=O)CN1CCC(NC(=O)CN2CCN(CC(=O)O)CCN(CC(=O)O)CCN(CC(=O)O)CC2)CC1)C(=O)N[C@H]1CC(=O)NCCCC[C@@H](C(N)=O)N(C)C(=O)[C@H](Cc2c[nH]c3ccccc23)N(C)C(=O)[C@H](CCCNC(=N)N)N(C)C(=O)[C@@H](Cc2ccccc2)NC(=O)[C@H](Cc2c[nH]cn2)N(C)C1=O [^68Ga-labeled CCZ01099, metal not drawn]

>  <UNIT DESCRIPTOR>
%ID/g

>  <tissue uptake at 2 h>
0.16

$$$$

====

tissue to tissue ratio at 120 h for assorted compounds
# PROCEDURE SUMMARY: Biodistribution of 177Lu-labeled αMSH analogues in mice bearing SK-MEL-1 human melanoma
# RECORDED CONDITIONS: male, NRG (NOD.Cg-Rag1tm1Mom Il2rgtm1Wjl/SzJ), mouse, tumour/muscle, total radioactivity, 120 h p.i., NRG mice, SK-MEL-1 melanoma

>  <COMPOUND>
CCCC[C@H](NC(=O)CN1CCC(NC(=O)[C@H](CCCCNC(=O)CN2CCN(CC(=O)O)CCN(CC(=O)O)CCN(CC(=O)O)CC2)NC(=O)[C@H](CCC(=O)O)NC(=O)CCCc2ccc(I)cc2)CC1)C(=O)N[C@H]1CC(=O)NCCCC[C@@H](C(N)=O)N(C)C(=O)[C@H](Cc2c[nH]c3ccccc23)NC(=O)[C@H](CCCNC(=N)N)N(C)C(=O)[C@@H](Cc2ccccc2)NC(=O)[C@H](Cc2c[nH]cn2)NC1=O [^177Lu-labeled CCZ01118, metal not drawn]

>  <tissue to tissue ratio at 120 h>
269

$$$$
>  <COMPOUND>
CCCC[C@H](NC(=O)CN1CCC(NC(=O)[C@H](CCCCNC(=O)CN2CCN(CC(=O)O)CCN(CC(=O)O)CCN(CC(=O)O)CC2)NC(=O)CNC(=O)CCCc2ccc(I)cc2)CC1)C(=O)N[C@H]1CC(=O)NCCCC[C@@H](C(N)=O)N(C)C(=O)[C@H](Cc2c[nH]c3ccccc23)NC(=O)[C@H](CCCNC(=N)N)N(C)C(=O)[C@@H](Cc2ccccc2)NC(=O)[C@H](Cc2c[nH]cn2)NC1=O [^177Lu-labeled CCZ01148, metal not drawn]

>  <tissue to tissue ratio at 120 h>
91.3

$$$$

====

# PROCEDURE SUMMARY: Biodistribution of 177Lu-labeled αMSH analogues in mice bearing B16F10 mouse melanoma
# Assay type: in vivo, C57BL/6J mice
# RECORDED CONDITIONS: mouse, liver, iv, total radioactivity; 1 h p.i., C57BL/6J mice, B16F10 melanoma; read-out: Biodistribution, Liver
tissue uptake at 1 h for assorted compounds

>  <COMPOUND>
CCCC[C@H](NC(=O)CN1CCC(NC(=O)CN2CCN(CC(=O)O)CCN(CC(=O)O)CCN(CC(=O)O)CC2)CC1)C(=O)N[C@H]1CC(=O)NCCCC[C@@H](C(N)=O)N(C)C(=O)[C@H](Cc2c[nH]c3ccccc23)NC(=O)[C@H](CCCNC(=N)N)N(C)C(=O)[C@@H](Cc2ccccc2)NC(=O)[C@H](Cc2c[nH]cn2)NC1=O [^177Lu-labeled CCZ01106, metal not drawn]

>  <tissue uptake at 1 h / %ID/g>
0.88

$$$$
>  <COMPOUND>
CCCC[C@H](NC(=O)CN1CCC(NC(=O)[C@H](CCCCNC(=O)CN2CCN(CC(=O)O)CCN(CC(=O)O)CCN(CC(=O)O)CC2)NC(=O)[C@H](CCC(=O)O)NC(=O)CCCc2ccc(I)cc2)CC1)C(=O)N[C@H]1CC(=O)NCCCC[C@@H](C(N)=O)N(C)C(=O)[C@H](Cc2c[nH]c3ccccc23)NC(=O)[C@H](CCCNC(=N)N)N(C)C(=O)[C@@H](Cc2ccccc2)NC(=O)[C@H](Cc2c[nH]cn2)NC1=O [^177Lu-labeled CCZ01118, metal not drawn]

>  <tissue uptake at 1 h / %ID/g>
3.65

$$$$
>  <COMPOUND>
CCCC[C@H](NC(=O)CN1CCC(NC(=O)CN2CCN(CC(=O)O)CCN(CC(=O)O)CCN(CC(=O)O)CC2)CC1)C(=O)N[C@H]1CC(=O)NCCCC[C@@H](C(N)=O)N(C)C(=O)[C@H](Cc2c[nH]c3ccccc23)N(C)C(=O)[C@H](CCCNC(=N)N)N(C)C(=O)[C@@H](Cc2ccccc2)NC(=O)[C@H](Cc2c[nH]cn2)N(C)C1=O [^177Lu-labeled CCZ01099, metal not drawn]

>  <tissue uptake at 1 h / %ID/g>
0.41

$$$$

====

# PROCEDURE SUMMARY: Biodistribution of 177Lu-labeled αMSH analogues in mice bearing SK-MEL-1 human melanoma
# RECORDED CONDITIONS: male, NRG (NOD.Cg-Rag1tm1Mom Il2rgtm1Wjl/SzJ), mouse, adrenal glands, total radioactivity
MEASURE NAME: tissue uptake at 1 h (%ID/g)

>  <MOLECULE>
CCCC[C@H](NC(=O)CN1CCC(NC(=O)[C@H](CCCCNC(=O)CN2CCN(CC(=O)O)CCN(CC(=O)O)CCN(CC(=O)O)CC2)NC(=O)[C@H](CCC(=O)O)NC(=O)CCCc2ccc(I)cc2)CC1)C(=O)N[C@H]1CC(=O)NCCCC[C@@H](C(N)=O)N(C)C(=O)[C@H](Cc2c[nH]c3ccccc23)NC(=O)[C@H](CCCNC(=N)N)N(C)C(=O)[C@@H](Cc2ccccc2)NC(=O)[C@H](Cc2c[nH]cn2)NC1=O [^177Lu-labeled CCZ01118, metal not drawn]

>  <RECORDED VALUE>
2.99

$$$$
>  <MOLECULE>
CCCC[C@H](NC(=O)CN1CCC(NC(=O)[C@H](CCCCNC(=O)CN2CCN(CC(=O)O)CCN(CC(=O)O)CCN(CC(=O)O)CC2)NC(=O)CNC(=O)CCCc2ccc(I)cc2)CC1)C(=O)N[C@H]1CC(=O)NCCCC[C@@H](C(N)=O)N(C)C(=O)[C@H](Cc2c[nH]c3ccccc23)NC(=O)[C@H](CCCNC(=N)N)N(C)C(=O)[C@@H](Cc2ccccc2)NC(=O)[C@H](Cc2c[nH]cn2)NC1=O [^177Lu-labeled CCZ01148, metal not drawn]

>  <RECORDED VALUE>
6.47

$$$$
>  <MOLECULE>
CCCC[C@H](NC(=O)CN1CCC(NC(=O)[C@H](CCCCNC(=O)CN2CCN(CC(=O)O)CCN(CC(=O)O)CCN(CC(=O)O)CC2)NC(=O)CNC(=O)CCCc2ccc(-c3ccc(C)cc3)cc2)CC1)C(=O)N[C@H]1CC(=O)NCCCC[C@@H](C(N)=O)N(C)C(=O)[C@H](Cc2c[nH]c3ccccc23)NC(=O)[C@H](CCCNC(=N)N)N(C)C(=O)[C@@H](Cc2ccccc2)NC(=O)[C@H](Cc2c[nH]cn2)NC1=O [^177Lu-labeled CCZ01158, metal not drawn]

>  <RECORDED VALUE>
5.1

$$$$
